Assay: logP determination via retention times, calibrated with unbranched alkan-2-ones
Type: physicochemical
Conditions: HPLC reversed-phase C 18, EEC Directive 79/831 Annex V.A8; method *: 40° C., 0.1% aqueous formic acid and acetonitrile, linear gradient 10% to 95% acetonitrile
Marks after values point to notes of the source that are not given here.
Quick reference: logP of the listed items.

// worked examples, logP included
# COMPOUND, QUANTITY_NAME, RECORDED_MEASUREMENT
data = [
    ("CSc1cccc(Nc2ncc(I)c(NC3CC3)n2)c1", "logP", "2.44*"),
    ("CO/N=C(\\C)Cc1cccc(Nc2ncc(Cl)c(NC3CC3)n2)c1", "logP", "2.2*"),
    ("COC(c1cccc(Nc2ncc(Cl)c(NCC3CC3)n2)c1)C(F)(F)F (centres unmarked)", "logP", "2.74*"),
]

Entry `O=C1COCCN1c1cccc(Nc2ncc(Cl)c(NC3CC3)n2)c1` ; logP = 1.2*

Entry `O=C1OCCN1c1cccc(Nc2ncc(Br)c(NCC3CC3)n2)c1` ; logP = 1.68*

* * *

Quick reference: logP of the listed items.
Test: logP determination via retention times, calibrated with unbranched alkan-2-ones
Format: physicochemical
Settings: HPLC on reversed-phase C18, method *: 40° C., 0.1% aqueous formic acid and acetonitrile, linear gradient 10% to 95% acetonitrile
Marks after values point to notes of the source that are not given here.

// worked examples, logP included
# COMPOUND, logP
measured = [
    ("Clc1ccccc1Nc1ncc(Cl)c(NC2CC2)n1", "2.6*"),
    ("OC(c1cccc(Nc2ncc(Cl)c(NC3CC3)n2)c1)C(F)(F)F (racemic)", "1.79*"),
    ("CCC(C)Oc1cc(Nc2ncc(Cl)c(NC3CC3)n2)ccc1C (racemic)", "2.99*"),
]

Entry `NS(=O)(=O)c1cc(Nc2ncc(Cl)c(NCC3CC3)n2)ccc1Cl` ; logP = 1.83*

Entry `NS(=O)(=O)c1cc(Nc2ncc(Cl)c(NC3CC3)n2)ccc1Cl` ; logP = 1.66*

* * *

Quick reference: logP of the listed items.
Test: logP determination via retention times, calibrated with unbranched alkan-2-ones
Format: physicochemical
Settings: HPLC reversed-phase C 18, EEC Directive 79/831 Annex V.A8; method *: 40° C., 0.1% aqueous formic acid and acetonitrile, linear gradient 10% to 95% acetonitrile
Marks after values point to notes of the source that are not given here.

// worked examples, logP included
# COMPOUND_STRING, logP
measured = [
    ("CC(=O)Cc1cccc(Nc2ncc(Br)c(NC3CC3)n2)c1", "1.64*"),
    ("Oc1c(Cl)cc(Nc2ncc(Cl)c(NC3CC3)n2)cc1Cl", "1.99*"),
    ("N#CCc1ccc(Nc2ncc(Cl)c(NC3CC3)n2)cc1", "1.59*"),
]

Entry `CC(C)(C)CSCc1ccc(Nc2ncc(Cl)c(NC3CC3)n2)cc1` ; logP = 3.78*

Entry `CC(=O)Cc1cccc(Nc2ncc(Cl)c(NC3CC3)n2)c1` ; logP = 1.51*

Entry `CCc1cccc(Nc2ncc(Br)c(NC3CC3)n2)c1` ; logP = 2.44*

Entry `CC(C)(C)c1cccc(Nc2ncc(Cl)c(NC3CC3)n2)c1` ; logP = 2.9*

Entry `CC(=O)Cc1cccc(Nc2ncc(Cl)c(NCC3CC3)n2)c1` ; logP = 1.67*

Entry `O=c1ccccn1-c1cccc(Nc2ncc(Br)c(NC3CC3)n2)c1` ; logP = 1.46*;

* * *

Assay: logP determination via retention times, calibrated with unbranched alkan-2-ones
Format: physicochemical
Settings: method *: HPLC reversed-phase C 18, temperature 40° C.; mobile phase 0.1% aqueous formic acid and acetonitrile; linear gradient 10% to 95% acetonitrile
QUANTITY_NAME: logP

// worked examples, logP included
# MOLECULE, RECORDED_MEASUREMENT
data = [
    ("O=C1CCCN1c1cccc(Nc2ncc(F)c(NC3CC3)n2)c1", "1.37*"),
    ("CC(=O)c1ccc(Nc2ncc(F)c(NC3CC3)n2)cc1", "1.53*"),
    ("CC(C)(C)C(=O)Nc1cccc(Nc2ncc(C(F)(F)F)c(NC3CC3)n2)c1", "2.6*"),
    ("CNC(=O)c1ccc(Nc2ncc(F)c(NC3CC3)n2)cc1", "1.05*"),
    ("CSc1ccc(Nc2ncc(F)c(NC3CC3)n2)cc1", "1.68*"),
    ("CSc1ccc(Nc2ncc(Cl)c(NCC3CC3)n2)cc1Cl", "3.15*"),
    ("CN(C)C(=O)c1cccc(Nc2ncc(C#N)c(NC3CC3)n2)c1", "1.83*"),
    ("COC(=O)Nc1cccc(Nc2ncc(F)c(NC3CC3)n2)c1", "1.37*"),
]

Entry `CNC(=O)Nc1cccc(Nc2ncc(F)c(NC3CC3)n2)c1` ; logP = 1.28*

Entry `CN(C)S(=O)(=O)c1cccc(Nc2ncc(C#N)c(NC3CC3)n2)c1` ; logP = 2.36*

* * *

Assay: logP determination via retention times, calibrated with unbranched alkan-2-ones
Format: physicochemical
Settings: method *: HPLC reversed-phase C18, 40° C., 0.1% aqueous formic acid and acetonitrile, linear gradient 10% to 95% acetonitrile
QUANTITY_NAME: logP

// worked examples, logP included
# MOLECULE, RECORDED_MEASUREMENT
data = [
    ("COC(=O)Nc1cccc(Nc2ncc(Br)c(NCC3CC3)n2)c1 [compound 458]", "1.73*"),
    ("O=C(Nc1cccc(Nc2ncc(Cl)c(NC3CC3)n2)c1)C1CC1 [Example 84]", "1.62*"),
    ("Oc1ccc(Nc2ncc(Br)c(NCC3CC3)n2)cc1F [compound 464]", "1.53*"),
    ("COc1ccc(Nc2ncc(Br)c(NCC3CC3)n2)cc1OC [compound 409]", "1.68*"),
]

Turning now to a further record.
Entry COC(=O)Nc1ccc(Nc2ncc(Br)c(NC3CC3)n2)cc1Cl [compound 430] ; logP = 2.2*

* * *

Experiment: logP determination via retention times, calibrated with unbranched alkan-2-ones
Format: physicochemical
Details: HPLC on reversed-phase C18, method **: 43° C.; mobile phase 0.1% aqueous phosphoric acid and acetonitrile; linear gradient 10% to 95% acetonitrile
Marks after values point to notes of the source that are not given here.
Quick reference: logP of the listed items.

# COMPOUND_STRING, logP
measured = [
    ("O=S(=O)(Cc1ccc(Nc2ncc(Cl)c(NC3CC3)n2)cc1)NC1CC1", "1.58**"),
    ("CC(C)(C)NS(=O)(=O)c1ccc(Nc2ncc(Cl)c(NC3CC3)n2)cc1", "2.3**"),
    ("CC(C)NS(=O)(=O)Cc1ccc(Nc2ncc(Cl)c(NC3CC3)n2)cc1", "1.75**"),
    ("O=C1CCCN1c1ccc(Nc2ncc(C(F)(F)F)c(NC3CC3)n2)cc1", "2.12**"),
    ("O=S(=O)(Cc1ccc(Nc2ncc(Cl)c(NC3CC3)n2)cc1)N1CCOCC1", "1.57**"),
]

Entry `CC(C)(C)NS(=O)(=O)Cc1cccc(Nc2ncc(Cl)c(NC3CC3)n2)c1` ; logP = 2.05**

Entry `CC(C)NS(=O)(=O)Cc1cccc(Nc2ncc(Cl)c(NC3CC3)n2)c1` ; logP = 1.78**

Entry `Cc1cc(Nc2ncc(Cl)c(NC3CC3)n2)c(C)cc1N` ; logP = 0.87**

Entry `CC(C)(C)NS(=O)(=O)Cc1ccc(Nc2ncc(Cl)c(NC3CC3)n2)cc1` ; logP = 1.99**

Entry `O=S(=O)(c1ccc(Nc2ncc(Cl)c(NC3CC3)n2)cc1)N1CCCC1` ; logP = 2.52**

Entry `Nc1ccc(Nc2ncc(Cl)c(NC3CC3)n2)cc1` ; logP = 0.48**

* * *

Test: logP determination via retention times, calibrated with unbranched alkan-2-ones
Assay type: physicochemical
Conditions: method *: HPLC reversed-phase C18, 40° C., 0.1% aqueous formic acid and acetonitrile, linear gradient 10% to 95% acetonitrile
QUANTITY_NAME: logP

# COMPOUND, RECORDED_MEASUREMENT
measured = [
    ("CC(C)(CF)C(=O)Nc1ccc(Nc2ncc(Cl)c(NC3CC3)n2)cc1 [Example 67]", "1.74*"),
    ("FC(F)C(F)(F)Oc1ccc(Nc2ncc(Br)c(NCC3CC3)n2)cc1 [compound 462]", "2.8*"),
    ("CC(C)(C)C(=O)Nc1ccc(Nc2ncc(Cl)c(NC3CC3)n2)cc1 [Example 72]", "1.81*"),
    ("N#CCS(=O)(=O)c1ccc(Nc2ncc(Cl)c(NC3CC3)n2)cc1 [compound 62]", "2.2*"),
]

Entry CSc1ccc(Nc2ncc(Cl)c(NC3CC3)n2)cc1Cl [compound 377] ; logP = 2.84*

Entry CCCCCCCCSc1cccc(Nc2ncc(Cl)c(NC3CC3)n2)c1.Cc1ccc(S(=O)(=O)O)cc1 [compound 442] ; logP = 6.16*
